// data source = patent EP4810040A2

Here, each record is paired with measured Multi-Tox Assay Max Activity (%) data.
Target: APOL1 G1 (Homo sapiens, UniProt O14791, I384M/S342G)
Sequence (O14791 28-398 S342G/I384M): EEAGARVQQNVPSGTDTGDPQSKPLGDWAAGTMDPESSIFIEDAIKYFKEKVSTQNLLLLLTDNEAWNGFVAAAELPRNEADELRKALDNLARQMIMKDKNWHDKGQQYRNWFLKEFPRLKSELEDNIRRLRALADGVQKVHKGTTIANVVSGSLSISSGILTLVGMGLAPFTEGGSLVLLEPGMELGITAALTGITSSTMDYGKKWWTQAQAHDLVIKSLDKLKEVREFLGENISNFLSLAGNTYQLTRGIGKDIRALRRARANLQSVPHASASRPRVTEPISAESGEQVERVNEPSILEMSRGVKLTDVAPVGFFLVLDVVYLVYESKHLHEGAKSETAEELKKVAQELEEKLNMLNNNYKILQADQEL
Assay: MultiTox-Fluor Multiplex Cytotoxicity Assay, tet-inducible APOL1 G1 T-REx-HEK293 cells
Assay type: cell-based
Set-up: expressed in transfected cells; host or cells: T-REx HEK293, clone G1 DC3.25 (pAAVS1-Puro-APOL1 G1)
Settings: Multi-Tox Assay; APOL1 variant not given
Readout Type: Multi-Tox Assay Max Activity (%)

1. Cc1c(Cn2cc([C@@H]3C[C@]4(C[C@H](C)N3)OC[C@@H](O)c3cc(Cl)sc34)nn2)cnn1C [Compound 285]	98.0
2. C[C@H]1C[C@@]2(C[C@@H](c3cccc(S(C)(=O)=O)c3)N1)OCCc1cc(Cl)sc12 (racemic) [Compound 146]	97.0
3. C[C@H]1C[C@@]2(C[C@@H](c3cnc4n3CCOC4)N1)OCCc1cc(Cl)sc12 (racemic) [Compound 149]	95.7
4. COc1nccc([C@@H]2C[C@]3(C[C@H](C)N2)OCCc2cc(Cl)sc23)n1 (racemic) [Compound 110]	99.2
5. CNC(=O)C(C)Cn1cc([C@@H]2C[C@]3(C[C@H](C)N2)OC[C@@H](O)c2cc(Cl)sc23)nn1 (stereo partly drawn) [Compound 258]	98.0
6. Cc1ccc(Cn2cc([C@@H]3C[C@]4(C[C@H](C)N3)OCC(F)(F)c3cc(Cl)sc34)nn2)nc1 [Compound 334]	96.0
7. C[C@H]1C[C@@]2(C[C@@H](c3cnn(CCO)c3)N1)OCCc1cc(Cl)sc12 (racemic) [Compound 56]	99.8
8. CCOCCn1cc([C@@H]2C[C@]3(C[C@H](C)N2)OC[C@@H](O)c2cc(Cl)sc23)nn1 [Compound 257]	101.0
9. C[C@H]1C[C@@]2(C[C@@H](c3cn(CCc4ccncn4)nn3)N1)OCC(F)(F)c1cc(Cl)sc12 [Compound 305]	100.0

----------
target: APOL1 G1 (Homo sapiens, UniProt O14791, I384M/S342G); experiment: MultiTox-Fluor Multiplex Cytotoxicity Assay, tet-inducible APOL1 G1 T-REx-HEK293 cells; format: cell-based; set-up: expressed in transfected cells; host or cells: T-REx HEK293, clone G1 DC3.25 (pAAVS1-Puro-APOL1 G1); details: HEK293, Multi-Tox Assay; APOL1 variant (G0/G1/G2) of the HEK293 cells not given; read-out: Multi-Tox Assay IC90
Here, each record is paired with measured IC90 data.
Readout Type: IC90

1) CNc1ncc([C@@H]2C[C@]3(C[C@H](C)N2)OCCc2cc(Cl)sc23)cn1 (racemic)	< 50 nM
2) Cc1nccc([C@@H]2C[C@]3(C[C@H](C)N2)OCCc2cc(Cl)sc23)n1 (racemic)	50 to 500 nM
3) C[C@H]1C[C@@]2(C[C@@H](c3cn(C)nn3)N1)OCC(O)(C(F)F)c1cc(Cl)sc12 (single isomer, unassigned)	50 to 500 nM
4) C[C@H]1C[C@@]2(C[C@@H](c3cn(Cc4cccc(CO)c4)nn3)N1)OCC(F)(F)c1cc(Cl)sc12	50 to 500 nM
5) C[C@H]1C[C@@]2(C[C@@H](c3ccn(C)n3)N1)OCCc1cc(Cl)sc12 (racemic)	50 to 500 nM
6) CC(=O)Nc1ccc([C@@H]2C[C@]3(C[C@H](C)N2)OCCc2cc(Cl)sc23)cc1 (racemic)	< 50 nM
7) C[C@H]1C[C@@]2(C[C@@H](c3cnc4c(cnn4C)c3)N1)OCCc1cc(Cl)sc12 (racemic)	< 50 nM
8) C[C@H]1C[C@@]2(C[C@@H](c3ncccc3O)N1)OCCc1cc(Cl)sc12 (racemic)	> 500 nM
9) C[C@H]1C[C@@]2(C[C@@H](c3cn(Cc4ccc(CO)cc4)nn3)N1)OC[C@@H](O)c1cc(Cl)sc12	50 to 500 nM
10) CCc1cc([C@@H]2C[C@]3(C[C@H](C)N2)OCCc2cc(Cl)sc23)on1	< 50 nM
11) COc1cc(O)cc([C@@H]2C[C@]3(C[C@H](C)N2)OCCc2cc(Cl)sc23)c1 (racemic)	50 to 500 nM
12) Cc1ccc(Cn2cc([C@@H]3C[C@]4(C[C@H](C)N3)OC[C@@H](O)c3cc(Cl)sc34)nn2)nc1	50 to 500 nM
13) C[C@H]1C[C@@]2(C[C@@H](c3cnc(-c4ccccc4)o3)N1)OCCc1cc(Cl)sc12 (racemic)	< 50 nM
14) C[C@H]1C[C@@]2(C[C@@H](c3cn(Cc4n[nH]c5ccccc45)nn3)N1)OCC(F)(F)c1cc(Cl)sc12	> 500 nM
15) C[C@H]1C[C@@]2(C[C@@H](c3ccc(O)c(F)c3)N1)OCCc1cc(Cl)sc12	< 50 nM
16) C[C@H]1C[C@@]2(C[C@@H](c3cn(CC4CCCCO4)nn3)N1)OC[C@@H](O)c1cc(Cl)sc12 (some centres unmarked)	50 to 500 nM
17) Cc1nn(C)c2ncc(C3CC4(CC(C)N3)OCCc3cc(Cl)sc34)cc12 (centres unmarked)	< 50 nM
18) CC1CC2(CC(c3cnn(CCS(C)(=O)=O)c3)N1)OCCc1cc(Cl)sc12 (centres unmarked)	< 50 nM
19) C[C@H]1C[C@@]2(C[C@@H](c3cn(Cc4cnc5cnccn45)nn3)N1)OCC(F)(F)c1cc(Cl)sc12	< 50 nM
20) CCc1cc2c(s1)CCO[C@@]21C[C@@H](c2cnn(CCS(C)(=O)=O)c2)N[C@@H](C)C1	50 to 500 nM

----------
Target: APOL1 G1 (Homo sapiens, UniProt O14791, I384M/S342G)
Sequence (O14791 28-398 S342G/I384M): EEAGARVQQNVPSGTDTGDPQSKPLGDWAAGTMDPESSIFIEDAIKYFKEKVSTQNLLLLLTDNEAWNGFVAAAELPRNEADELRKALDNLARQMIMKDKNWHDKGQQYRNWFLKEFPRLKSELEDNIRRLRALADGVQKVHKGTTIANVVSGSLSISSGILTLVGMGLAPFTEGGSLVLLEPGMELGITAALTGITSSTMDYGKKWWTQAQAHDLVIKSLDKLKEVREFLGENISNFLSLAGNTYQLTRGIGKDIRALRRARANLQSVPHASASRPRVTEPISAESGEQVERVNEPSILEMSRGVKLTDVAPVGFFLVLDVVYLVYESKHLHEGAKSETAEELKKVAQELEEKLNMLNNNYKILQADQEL
Experiment: MultiTox-Fluor Multiplex Cytotoxicity Assay, tet-inducible APOL1 G1 T-REx-HEK293 cells
Format: cell-based
Parameters: expressed in transfected cells; host or cells: T-REx HEK293, clone G1 DC3.25 (pAAVS1-Puro-APOL1 G1)
Conditions: Multi-Tox Assay; APOL1 variant not given
Method: The MultiTox-Fluor Multiplex Cytotoxicity Assay is a single-reagent-addition, homogeneous, fluorescence assay that measures the number of live and dead cells simultaneously in culture wells. […] The live-cell protease activity is restricted to intact viable cells and is measured using a fluorogenic, cell-permeant peptide glycyl-phenylalanylamino fluorocoumarin (GF-AFC) substrate. […] Assay ready plates from the Global Compound Archive were ordered using template 384_APOL1Cell_DR10n2_50uM_v3. […]
Here, each record is paired with measured Multi-Tox Assay Max Activity (%) data.
Readout Type: Multi-Tox Assay Max Activity (%)

1) C[C@H]1C[C@@]2(C[C@@H](c3cn(Cc4n[nH]c5ccccc45)nn3)N1)OCC(F)(F)c1cc(Cl)sc12 [Compound 349]	91.0%
2) Cc1ncc(Cn2cc([C@@H]3C[C@]4(C[C@H](C)N3)OC[C@@H](O)c3cc(Cl)sc34)nn2)cn1 [Compound 277]	100.0%
3) Cc1cc(O)ncc1[C@@H]1C[C@]2(C[C@H](C)N1)OCCc1cc(Cl)sc12 (racemic) [Compound 125]	99.7%
4) C[C@H]1C[C@@]2(C[C@@H](c3cn(Cc4cccc(O)c4)nn3)N1)OC[C@@H](O)c1cc(Cl)sc12 [Compound 279]	97.0%
5) Cc1ccccc1C(O)Cn1cc([C@@H]2C[C@]3(C[C@H](C)N2)OC[C@@H](O)c2cc(Cl)sc23)nn1 (some centres unmarked) [Compound 261]	100.0%
6) C[C@H]1C[C@@]2(C[C@@H](c3cn(Cc4cccc(CO)c4)nn3)N1)OC[C@@H](O)c1cc(Cl)sc12 [Compound 271]	97.0%
7) Cc1nnc(Cn2cc([C@@H]3C[C@]4(C[C@H](C)N3)OCC(F)(F)c3cc(Cl)sc34)nn2)[nH]1 [Compound 339]	97.0%
8) C[C@H]1C[C@@]2(C[C@@H](c3ccc(O)c(F)c3)N1)OCCc1cc(Cl)sc12 [Compound 51]	99.7%
9) C[C@H]1C[C@@]2(C[C@@H](c3cc4n(n3)CCCO4)N1)OCCc1cc(Cl)sc12 (racemic) [Compound 131]	99.3%
10) C[C@H]1C[C@@]2(C[C@@H](c3ccc(O)cn3)N1)OCCc1cc(Cl)sc12 (racemic) [Compound 59]	99.3%
11) COCCOCCn1cc([C@@H]2C[C@]3(C[C@H](C)N2)OCC(F)(F)c2cc(Cl)sc23)nn1 [Compound 340]	98.0%
12) C[C@H]1C[C@@]2(C[C@@H](c3cccc4[nH]c(=O)oc34)N1)OCCc1cc(Cl)sc12 (racemic) [Compound 141]	96.3%
13) Cc1c([C@@H]2C[C@]3(C[C@H](C)N2)OCCc2cc(Cl)sc23)cnn1C (racemic) [Compound 136]	98.7%
14) C[C@H]1C[C@@]2(C[C@@H](c3cn(Cc4cnc5cnccn45)nn3)N1)OCC(F)(F)c1cc(Cl)sc12 [Compound 358]	98.0%
15) CCC(O)Cn1cc([C@@H]2C[C@]3(C[C@H](C)N2)OCC(F)(F)c2cc(Cl)sc23)nn1 (some centres unmarked) [Compound 325]	98.0%
16) COc1cc(F)cc(Cn2cc([C@@H]3C[C@]4(C[C@H](C)N3)OC[C@@H](O)c3cc(Cl)sc34)nn2)c1 [Compound 293]	100.0%
17) Cc1cccnc1[C@@H]1C[C@]2(C[C@H](C)N1)OCCc1cc(Cl)sc12 (racemic) [Compound 167]	89.7%
